From: patent US7074789B2

Reported IC50 values for the following compounds.
target: EGFR (Homo sapiens); construct: Kinases are expressed as either kinase domains or full length constructs; made in house; experiment: Kinase inhibition assay (33P transfer), EGFR; assay type: biochemical; conditions: Table 2, kinase inhibition class; read-out: EGFR-1
Sequence (P00533 25-1210, species assumed): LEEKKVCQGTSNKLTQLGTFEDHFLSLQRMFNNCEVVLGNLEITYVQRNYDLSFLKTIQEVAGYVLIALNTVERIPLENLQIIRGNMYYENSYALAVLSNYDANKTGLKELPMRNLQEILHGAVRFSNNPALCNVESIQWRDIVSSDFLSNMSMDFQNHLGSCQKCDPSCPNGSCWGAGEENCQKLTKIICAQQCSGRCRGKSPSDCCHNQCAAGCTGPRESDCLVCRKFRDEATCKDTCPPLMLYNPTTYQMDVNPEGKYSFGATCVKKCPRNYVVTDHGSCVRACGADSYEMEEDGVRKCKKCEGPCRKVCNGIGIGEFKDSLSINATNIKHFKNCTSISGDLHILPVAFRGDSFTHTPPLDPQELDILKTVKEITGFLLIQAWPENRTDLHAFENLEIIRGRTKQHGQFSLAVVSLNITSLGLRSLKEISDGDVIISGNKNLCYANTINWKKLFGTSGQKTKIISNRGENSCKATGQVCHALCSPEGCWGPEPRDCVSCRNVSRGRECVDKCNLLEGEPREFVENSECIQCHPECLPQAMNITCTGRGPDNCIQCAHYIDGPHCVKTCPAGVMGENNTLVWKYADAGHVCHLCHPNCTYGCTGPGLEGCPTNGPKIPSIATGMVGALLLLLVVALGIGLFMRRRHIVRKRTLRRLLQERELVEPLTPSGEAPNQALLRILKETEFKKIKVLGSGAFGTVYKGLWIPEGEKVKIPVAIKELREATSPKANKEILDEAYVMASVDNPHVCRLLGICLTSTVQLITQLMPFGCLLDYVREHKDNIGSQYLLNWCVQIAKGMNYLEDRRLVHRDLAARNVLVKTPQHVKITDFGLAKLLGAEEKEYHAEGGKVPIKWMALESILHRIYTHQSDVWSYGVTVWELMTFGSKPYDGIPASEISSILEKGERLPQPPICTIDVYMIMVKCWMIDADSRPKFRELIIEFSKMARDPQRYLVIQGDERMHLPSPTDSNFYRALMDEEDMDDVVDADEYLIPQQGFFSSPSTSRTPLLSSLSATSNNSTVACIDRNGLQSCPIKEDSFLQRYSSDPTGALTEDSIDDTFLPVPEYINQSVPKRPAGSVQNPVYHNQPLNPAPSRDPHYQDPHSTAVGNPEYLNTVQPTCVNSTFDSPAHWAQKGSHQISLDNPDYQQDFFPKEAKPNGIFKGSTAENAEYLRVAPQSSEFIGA

compound	experimental target	IC50
COc1cc(Nc2ncnc(Nc3ccc(OCC(=O)Nc4ccccc4)cc3)n2)cc(OC)c1OC	EGFR (Homo sapiens)	0.796 to 4.78 µM
NC(=O)c1ccccc1Nc1ncnc(-n2c(N)nc3ccccc32)n1	EGFR (Homo sapiens)	> 13 µM

The value of IC50 measured for the compound COc1cc(Nc2ncnc(N(C)c3cccc(Cl)c3)n2)cc(OC)c1 turned out to be < 1.08 µM

Data point: COc1cc(Nc2ncnc(-n3c(NCc4ccccn4)nc4ccccc43)n2)cc(OC)c1OC ; IC50 = > 9.29 µM
